assay: Confirmation screen for delayed death inhibitors of the malarial parasite plastid, 96 hour incubation; note: nearly all actives have a fitted effect of over 60% in size; details: P. falciparum luciferase growth in erythrocytes; series mostly up to 28.7 µM
Among all 2,300 compounds or so, about 1,400 (61%) were called active. About 29% were inconclusive and are not listed. Calls come from the whole dose curve; as a rule, active = well fitted inhibition curve with a large enough effect; inconclusive = small, poorly fitted or top-dose-only effect, or effect the other way; inactive = no such curve, though single readings can be large or run the other way. So high a share suggests a set chosen from earlier hits. The list shows a part of the results.
Write down one outcome, taken from y for active, n for inactive

- molecule: "COc1ccc(NC(=O)NC2CCCc3ccccc32)c(OC)c1 (configuration not stated)"
  label value: "y"
- molecule: "CCCCN(CCCNC(=O)C1CCN(C(=O)c2cc3sccc3n2C)CC1)Cc1ccccc1"
  label value: "y"
- molecule: "O=C(CCl)Nc1c2c(nn1-c1ccccc1)CSC2"
  label value: "y"
- molecule: "O=C(c1ccc(S(=O)(=O)Cc2cc(F)ccc2F)c([N+](=O)[O-])c1)N1CCCC1"
  label value: "y"
- molecule: "CC1CCN(C(=O)Cn2cc(C(=O)c3ccco3)c3ccccc32)CC1"
  label value: "y"

Challenge: Test call, this molecule: CC1CCN(c2ccc3nnc(CCC(=O)N4CCN(c5ccccc5F)CC4)n3n2)CC1
Response given: y

Challenge: I'd appreciate the recorded outcome for CCOC(=O)c1ccc(NC(=O)c2c(Cl)cc(C)nc2C)cc1 from this test.
Response given: y

Challenge: Hello, I am checking results. What call was entered for S=c1nc2c(n[nH]1)c1ccccc1n2CCc1ccccc1 ?
Response given: y

Challenge: Record lookup: outcome of this test for COc1ccc(/C=N/NC(=O)c2cc(-c3ccccc3)nc3ccccc23)cc1O ?
Response given: n

Challenge: For COc1ccccc1-c1cc(C(=O)N/N=C/c2cccs2)c2ccccc2n1 , which call appears in the assay record?
Response given: y

Challenge: Would you mind telling me which call this test gave O=C(/C=C/c1ccccc1Cl)c1ccccc(=O)c1O ?
Response given: y

Challenge: Hi, sorry to bother you, what did the test record for COc1ccccc1-c1cc(C(=O)N/N=C/c2sccc2C)c2ccccc2n1 ?
Response given: y

Challenge: Recorded call for COc1ccc(-c2cc(C(=O)N/N=C/c3ccc4c(c3)OCO4)c3ccccc3n2)c(OC)c1 ?
Response given: y

Challenge: Per the records of this test, what outcome belongs to Cc1cc(C(=O)OC(C)C(=O)Nc2nc(-c3ccccc3)cs2)c(C)o1 (configuration not stated) ?
Response given: n

Challenge: Please let me know the test result on file for CC(NC(=O)c1cc2sccc2n1C)c1ccc2c(c1)OCCO2 (configuration not stated) .
Response given: n

Challenge: Dear all, I need the recorded test outcome for Cc1ccc(-c2cc(NC(=O)CCl)n(-c3ccccc3)n2)cc1 , thank you.
Response given: y

Challenge: Please share the test call associated with COc1ccc(-c2c(-c3ccc(OC)c(C)c3O)n[nH]c2C)cc1 .
Response given: y

Challenge: Identify the outcome logged in this assay for the molecule shown: CCCCc1nc2cc(C(=O)N3CCN(c4nc(C)cnc4C)CC3)ccc2o1
Response given: y

---

experiment: Confirmation screen for delayed death inhibitors of the malarial parasite plastid, 96 hour incubation; note: nearly all actives have a fitted effect of over 60% in size; note: potency is the fitted concentration of half-maximal effect; conditions: P. falciparum luciferase growth in erythrocytes; series mostly up to 28.7 µM
Among all 2,300 compounds or so, about 1,400 (61%) were called active. Inconclusive results (about 29%) are left out. So high a share suggests a set chosen from earlier hits. This is one part of the list.
# Potency annotations

- compound: "CCOCCCn1c(C)nc2c(c1=O)c1nc3ccccc3nc1n2CCC1=CCCCC1"
  readout name: "Potency"
  result: "3.16 µM (active)"
- compound: "COc1ccccc1NS(=O)(=O)c1ccc2oc(SCc3ccc(C#N)cc3)nc2c1"
  readout name: "Potency"
  result: "12.6 µM (active)"

Challenge: May I ask what Potency has been recorded for Cc1cccc2cc3c(nc12)SC(=NCC1CCCO1)N(Cc1ccco1)C3 (stereo not given) ?
Response given: 2 µM (active)

Challenge: Please report the recorded Potency for CCOC(=O)CSc1nnc(CNc2nc(-c3ccccc3)cs2)n1C .
Response given: 10 µM (active)

Challenge: Item under review: O=C(CCNS(=O)(=O)c1cccc2nonc12)NCCc1ccc(Cl)cc1 . Reported Potency?
Response given: 11.2 µM (active)

---

A collection of compounds and their measured Potency
Test: Confirmation screen for delayed death inhibitors of the malarial parasite plastid, 96 hour incubation; note: nearly all actives have a fitted effect of over 60% in size; note: potency is the fitted concentration of half-maximal effect
Conditions: P. falciparum luciferase growth in erythrocytes; series mostly up to 28.7 µM
Source text: The goal of this screen is to discover new antimalarial compounds that act by inhibiting the development of the apicoplast in the malarial parasite Plasmodium falciparum. The biochemical processes that make this organelle essential for erythrocytic stage parasites are not well understood. […] Growth inhibition is detected by a decrease in luciferase activity. […]
Screen size: about 2,300 compounds; about 1,400 (61%) were called active. Another 29% or so got no clear call; they are omitted. The set was probably picked from earlier hits. Some of the results follow.

Recorded Potency, per entry:
- compound: "CC1CCC/C=C/C(=O)c2c(O)cc(O)cc2CC(=O)O1 (stereo not given)"
  readout name: "Potency"
  result: "5.01 µM (active)"
- compound: "NC(=O)C1CCN(CC(=O)Nc2cccc(C(=O)Nc3cccc(C(F)(F)F)c3)c2)CC1"
  readout name: "Potency"
  result: "1.12 µM (active)"
- compound: "C#CCOCCOCCOCCNc1nc(N2CCN(C(=O)Cn3cc(CC(C)O)nn3)CC2)nc(N2CCN(C(=O)[C@H](C)n3cc(CCCN=C(N)N)nn3)CC2)n1 (stereo not given in full)"
  readout name: "Potency"
  result: "15.8 µM (active)"
- compound: "CC1CCN(CCCNS(=O)(=O)c2cc(Br)cc3c2N(C(=O)C2CC2)CC3)CC1"
  readout name: "Potency"
  result: "12.6 µM (active)"
- compound: "CCOc1ccc(S(=O)(=O)Nc2cc(S(=O)(=O)N(CC)CC)ccc2N2CCCC2)cc1"
  readout name: "Potency"
  result: "0.501 µM (active)"
- compound: "c1ccc2oc(Cc3ccc(Cc4nc5ccccc5o4)cc3)nc2c1"
  readout name: "Potency"
  result: "8.91 µM (active)"
- compound: "NC(=O)COc1ccc(NC(=O)CC23CC4CC(CC(C4)C2)C3)cc1"
  readout name: "Potency"
  result: "11.2 µM (active)"
- compound: "O=C(C1CC1)N1CCc2cc(Br)cc(S(=O)(=O)NCc3ccco3)c21"
  readout name: "Potency"
  result: "11.2 µM (active)"

With those in mind, consider the next compound.
Challenge: Please give the measured Potency for this compound: COC(=O)c1c(-c2ccccc2)csc1NC(=O)c1c(-c2ccccc2)noc1C
Response given: 14.1 µM (active)

---

Test: Confirmation screen for delayed death inhibitors of the malarial parasite plastid, 96 hour incubation; note: nearly all actives have a fitted effect of over 60% in size
Details: P. falciparum luciferase growth in erythrocytes; series mostly up to 28.7 µM
Excerpt: The goal of this screen is to discover new antimalarial compounds that act by inhibiting the development of the apicoplast in the malarial parasite Plasmodium falciparum. The biochemical processes that make this organelle essential for erythrocytic stage parasites are not well understood. […] Growth inhibition is detected by a decrease in luciferase activity. […]
Among all 2,300 compounds or so, about 1,400 (61%) were called active. Another 29% or so got no clear call; they are omitted. Calls follow the shape of the dose curve; as a rule, active = well fitted inhibition curve with a large enough effect; inconclusive = small, poorly fitted or top-dose-only effect, or effect the other way; inactive = no such curve, though single readings can be large or run the other way. So high a share suggests a set chosen from earlier hits. This is one part of the list.
Select the correct class. Options are label 1 for active, label 0 for inactive and nothing else.

Worked examples follow.
- compound: "Cc1ccc(S(=O)(=O)N2CCN(C(=O)c3ccc(Br)o3)CC2)c(C)c1"
  label value: "label 1"
- compound: "CCCCCn1c(=O)c2ccccc2n2c(CCl)nnc12"
  label value: "label 1"
- compound: "CN1CCN(C(=O)c2cc(COc3c(F)cccc3F)on2)CC1c1ccccc1 (stereo not given)"
  label value: "label 0"
- compound: "Cc1ccc(S(=O)(=O)N2CCN(C(=O)c3cc(S(=O)(=O)N(C)C)ccc3N3CCCC3)CC2)c(C)c1"
  label value: "label 1"

Turning to the following compound.
Challenge: Returns: the outcome recorded for CCC(CC)N1CCN(Cc2nc3ccc([N+](=O)[O-])cc3c(=O)n2-c2ccccc2F)CC1 in this assay.
Response given: label 0

---

test: Confirmation screen for delayed death inhibitors of the malarial parasite plastid, 96 hour incubation; note: nearly all actives have a fitted effect of over 60% in size; details: P. falciparum luciferase growth in erythrocytes; series mostly up to 28.7 µM
Hit rate of the full screen: of about 2,300 compounds, about 1,400 (61%) were called active. Inconclusive results (about 29%) are left out. The call rests on the fitted dose curve; in most records, active means well fitted inhibition curve with a large enough effect; inconclusive means small, poorly fitted or top-dose-only effect, or effect the other way; inactive means no such curve, though single readings can be large or run the other way. The set was probably picked from earlier hits. This is one part of the list.
# valid calls are label 1 (active), label 0 (inactive); nothing else

- compound: "O=C(NCCCN1CCCC1)c1ccc2c(c1)N(Cc1ccccc1F)C(=O)c1ccccc1S2=O (stereo unspecified)"
  label value: "label 1"
- compound: "Cc1cccc(C)c1Nc1c(-c2ccc(N3CCOCC3)cc2)nc2ncccn12"
  label value: "label 1"
- compound: "CCC(=O)Nc1cccc(C2=NOC3(C2)C[C@@H](C(N)=O)N(C(=O)c2cc([N+](=O)[O-])cc([N+](=O)[O-])c2C)C3)c1 (stereo partly specified)"
  label value: "label 1"
- compound: "COc1cc(/C=C(/C(=O)c2cccs2)c2nc3ccccc3[nH]2)ccc1O"
  label value: "label 1"
- compound: "Fc1ccc2nc(Nc3nc4c(F)cc(F)cc4s3)sc2c1"
  label value: "label 1"
- compound: "CN1c2ccccc2C(C)(C)C12CC(c1ccc(S(=O)(=O)N3CCCCC3)cc1)=NO2 (stereo unspecified)"
  label value: "label 1"
- compound: "CC(Oc1ccccc1F)C(=O)Nc1ccc2ccccc2c1 (stereo unspecified)"
  label value: "label 0"
- compound: "CC(C)N1CCc2c(sc(NC(=S)NC(=O)c3ccccc3)c2C#N)C1"
  label value: "label 1"

Challenge: Which result was noted for this compound in the test: COC(=O)C(NC(=O)c1ccccc1C)(Nc1ncc(S(=O)(=O)c2ccc([N+](=O)[O-])cc2)s1)C(F)(F)F (stereo unspecified)
Response given: label 1

Challenge: How was CC(=O)NC(=S)Nc1ccccc1C(=O)NC1CCCCC1 classified in this test?
Response given: label 1

Challenge: Fill in: this test's call for COc1ccccc1C1CCCN1Cc1nc(-c2ccc(C)s2)oc1C (stereo unspecified) is ___
Response given: label 1

Challenge: Returns: the outcome recorded for Cc1cccc(CN2C(=O)c3ccccc3S(=O)(=O)c3ccc(C(=O)NCCCN4CCCC4)cc32)c1 in this assay.
Response given: label 1

Challenge: State the result this test recorded for Fc1ccc2cnc(-c3ccccc3)c(-c3ccc(C(F)(F)F)cc3)c2c1 .
Response given: label 1

Challenge: Check the results log: what was the call for COC(=O)/C(=C\c1cc(OC)c(OC)c(OC)c1)c1nc2ccccc2[nH]1 ?
Response given: label 1

Challenge: Which outcome did this test record for the compound CC(=O)Nc1ccc(OCc2cccc3ccccc23)cc1 ?
Response given: label 1

Challenge: Write down the call the test reported for this compound. Item: O=C(c1cccs1)N1N=C(c2ccccc2)CC1c1ccccc1O (stereo unspecified)
Response given: label 1

Challenge: Please share the test call associated with CC(C)CC1NC(=S)N(Cc2ccccc2)C1=O (stereo unspecified) .
Response given: label 1

Challenge: Per the assay record, what outcome was assigned to O=C(Nc1ccncc1)c1ccc(Cl)c(S(=O)(=O)N2CCCC2)c1 ?
Response given: label 1

Sourced from PubChem BioAssay AID504848
